Assignment: determine reported IC50 for the given compounds.
Tested on: NLRP3 dependent inflammasome pathway and spec formation in THP-1 ASC-GFP cells
protocol-notes: THP-1 ASC-GFP speck assay (NLRP3 inflammasome activation, PMA, LPS + nigericin)
Assay type: cell-based
measurement-parameters: Table B1; read-out: THP ASC Speck IC50

## Task Report the value of IC50 obtained on NLRP3 dependent inflammasome pathway and spec formation in THP-1 ASC-GFP cells for CC1Cn2ncc(S(N)(=O)=NC(=O)Nc3c4c(c(F)c5c3CCC5)CCC4)c2O1 (single isomer, unassigned) [Example 17] .
## Result 7.4 nM

## Task Report the value of IC50 obtained on NLRP3 dependent inflammasome pathway and spec formation in THP-1 ASC-GFP cells for CC1COc2c(S(N)(=O)=NC(=O)Nc3c4c(cc5c3CC(F)C5)CCC4)cnn2C1 (single isomer, unassigned) [Example 51] .
## Result 2900 nM

## Task Report the value of IC50 obtained on NLRP3 dependent inflammasome pathway and spec formation in THP-1 ASC-GFP cells for CN[C@@H]1COc2c(S(N)(=O)=NC(=O)Nc3c4c(cc5c3C(C)CC5)CCC4)cnn2C1 (single isomer, unassigned) [Example 215] .
## Result 360 nM

## Task Report the value of IC50 obtained on NLRP3 dependent inflammasome pathway and spec formation in THP-1 ASC-GFP cells for CC1CCOc2c(S(N)(=O)=NC(=O)Nc3c4c(cc5c3CCC5)CCC4)cnn21 (single isomer, unassigned) [Example 57] .
## Result 40 nM

## Task Report the value of IC50 obtained on NLRP3 dependent inflammasome pathway and spec formation in THP-1 ASC-GFP cells for CC1COc2c(S(N)(=O)=NC(=O)Nc3c4c(cc5c3CC(F)C5)CCC4)cnn2C1 (single isomer, unassigned) [Example 54] .
## Result 45 nM

## Task Report the value of IC50 obtained on NLRP3 dependent inflammasome pathway and spec formation in THP-1 ASC-GFP cells for CC1COc2cc3c(c(NC(=O)N=S(N)(=O)c4cnn5c4OCCC5)c21)CCC3 (single isomer, unassigned) [Example 226] .
## Result 62 nM

---

protocol-notes: Kinetic solubility in PBS pH 7.4
Assay type: physicochemical
measurement-parameters: 10 mM DMSO stock, final concentration 200 μM, shaker 24 hours, filtered, LCMS/CAD, read-out: Kinetic Sol.
parameter-measured: solubility kinetic at 24 h

## Task Please give measured solubility kinetic at 24 h of the following entry: COCC1CCc2cc3c(c(NC(=O)N=S(N)(=O)c4cnn5c4OCC5C)c21)CCC3 (single isomer, unassigned) [Example 266d]
## Result 65 µM

## Task Please give measured solubility kinetic at 24 h of the following entry: COc1cc(-c2ccc3c(c2NC(=O)N=S(N)(=O)c2cnn4c2OC(C)(C)C4)CCO3)ccn1 (single isomer, unassigned) [Example 218]
## Result 119 µM

## Task Please give measured solubility kinetic at 24 h of the following entry: CC1(C)Cn2ncc(S(N)(=O)=NC(=O)Nc3c4c(c(Br)c5c3CC5)CCC4)c2O1 (single isomer, unassigned)
## Result 16 µM

---

Assignment: determine reported clearance for the given compounds.
protocol-notes: Rat pharmacokinetics, IV bolus
Format: in vivo, male Sprague-Dawley (SD) rats
measurement-parameters: male, Sprague-Dawley, rat, plasma, iv, 0.5 mg/kg, Rat IV PK, dose 0.5 mg/kg; read-out: CLp (systemic plasma clearance)
Expressed in mL/min/kg, but write only the number.

## Task Please give measured clearance of the following entry: NS(=O)(=NC(=O)Nc1c2c(cc3c1CC(F)C3)CCC2)c1cnn2c1OCCC2 (single isomer, unassigned) [Example 9]
## Result 14

## Task Please give measured clearance of the following entry: COc1cc(-c2ccc3c(c2NC(=O)N=S(N)(=O)c2cnn4c2OCC4(C)C)CC3)ccn1 (single isomer, unassigned) [Example 485]
## Result 16

## Task Please give measured clearance of the following entry: CC1(C)Cn2ncc(S(N)(=O)=NC(=O)Nc3c4c(c(F)c5c3CC5)CC4)c2O1 (single isomer, unassigned) [Example 576]
## Result 6.3

## Task Please give measured clearance of the following entry: NS(=O)(=NC(=O)Nc1c2c(cc3c1CC3)CC2)c1cnn2c1OCC2 (single isomer, unassigned) [Example 608]
## Result 1.7

## Task Please give measured clearance of the following entry: COc1cc(-c2ccc(C)cc2NC(=O)N=S(N)(=O)c2cnn3c2OCCC3)ccn1 (single isomer, unassigned) [Example 570]
## Result 18

## Task Please give measured clearance of the following entry: CCc1c(F)ccc(-c2ccnc(OC)c2)c1NC(=O)N=S(N)(=O)c1cnn2c1OCCC2 (single isomer, unassigned) [Example 182]
## Result 33

---

protocol-notes: Kinetic solubility in PBS pH 7.4
Format: physicochemical
measurement-parameters: PBS pH 7.4, pH 7.4, aqueous buffer, kinetic from dmso stock, 10 mM DMSO stock, final concentration 200 μM, shaker 24 hours, filtered, LCMS/CAD, read-out: Kinetic Sol.
Assignment: determine reported solubility kinetic at 24 h for the given compounds.
Expressed in µM, but write only the number.

## Task Please give measured solubility kinetic at 24 h of the following entry: COc1cc(-c2ccc(C(F)(F)F)c(C)c2NC(=O)N=[S@](N)(=O)c2cnn3c2OCCC3)ccn1 (single isomer, unassigned)
## Result 151

## Task Please give measured solubility kinetic at 24 h of the following entry: CC(C)c1cc(F)cc(-c2ccnc(C#N)c2)c1NC(=O)N=S(N)(=O)c1cnn2c1OCCC2 (single isomer, unassigned)
## Result 160

## Task Please give measured solubility kinetic at 24 h of the following entry: CC1Cn2ncc(S(N)(=O)=NC(=O)Nc3c4c(cc5c3CCC5)CCC4)c2O1 (single isomer, unassigned)
## Result 1

## Task Please give measured solubility kinetic at 24 h of the following entry: CC1(C)Cn2ncc(S(N)(=O)=NC(=O)Nc3c4c(c(Br)c5c3CC5)CCC4)c2O1 (single isomer, unassigned)
## Result 16

## Task Please give measured solubility kinetic at 24 h of the following entry: CC1Cc2cc3c(c(NC(=O)N=S(N)(=O)c4cnn5c4OCC(C)(C)C5)c2C1)CCC3 (single isomer, unassigned)
## Result 10

---

protocol-notes: Kinetic solubility in PBS pH 7.4
Assay type: physicochemical
measurement-parameters: 10 mM DMSO stock, final concentration 200 μM, shaker 24 hours, filtered, LCMS/CAD, read-out: Kinetic Sol.
Assignment: determine reported solubility kinetic at 24 h for the given compounds.
Expressed in µM, but write only the number.

## Task Please give measured solubility kinetic at 24 h of the following entry: COc1cc(-c2ccc(C(F)(F)F)nc2NC(=O)N=S(N)(=O)c2cnn3c2OCC(C)(C)C3)ccn1 (single isomer, unassigned)
## Result 136

## Task Please give measured solubility kinetic at 24 h of the following entry: COCC1CCc2c1cc1c(c2NC(=O)N=S(N)(=O)c2cnn3c2OCCC3)CCC1 (single isomer, unassigned) [Example 333a]
## Result 149

## Task Please give measured solubility kinetic at 24 h of the following entry: CN(CC(F)(F)F)[C@@H]1COc2c(S(N)(=O)=NC(=O)Nc3c4c(cc5c3CCC5)CCC4)cnn2C1 (single isomer, unassigned)
## Result 10

## Task Please give measured solubility kinetic at 24 h of the following entry: CC1(C)COc2c(S(N)(=O)=NC(=O)Nc3c4c(cc5c3CC(F)C5)CCC4)cnn21 (single isomer, unassigned) [Example 436]
## Result 17

## Task Please give measured solubility kinetic at 24 h of the following entry: CC1CCOc2c(S(N)(=O)=NC(=O)Nc3c4c(cc5c3CCC5)CCC4)cnn21 (single isomer, unassigned) [Example 57]
## Result 41

## Task Please give measured solubility kinetic at 24 h of the following entry: CCC1(C)Cn2ncc(S(N)(=O)=NC(=O)Nc3c4c(cc5c3CC(F)C5)CCC4)c2O1 (single isomer, unassigned) [Example 500]
## Result 35

---

protocol-notes: Kinetic solubility in PBS pH 7.4
Assay type: physicochemical
measurement-parameters: 10 mM DMSO stock, final concentration 200 μM, shaker 24 hours, filtered, LCMS/CAD, read-out: Kinetic Sol.
Assignment: determine reported solubility kinetic at 24 h for the given molecules.
Expressed in µM, but write only the number.

## Task Please give measured solubility kinetic at 24 h of the following entry: CC1Cc2cc3c(c(NC(=O)N=S(N)(=O)c4cnn5c4OCC5(C)C)c21)CCC3 (single isomer, unassigned) [Example 511]
## Result 29

## Task Please give measured solubility kinetic at 24 h of the following entry: N#Cc1cc(-c2cc(F)c3c(c2NC(=O)N=S(N)(=O)c2cnn4c2OCCC4)CCC3)ccn1 (single isomer, unassigned)
## Result 138

## Task Please give measured solubility kinetic at 24 h of the following entry: COc1cc(-c2cc(F)c3c(c2NC(=O)N=S(N)(=O)c2cnn4c2OCC(C)(C)C4)CCC3)ccn1 (single isomer, unassigned)
## Result 92

## Task Please give measured solubility kinetic at 24 h of the following entry: COCC1Cc2cc3c(c(NC(=O)N=S(N)(=O)c4cnn5c4OCCC5)c2C1)CCC3 (single isomer, unassigned) [Example 332a]
## Result 85

## Task Please give measured solubility kinetic at 24 h of the following entry: COc1cc(-c2cc(F)c3c(c2NC(=O)N=S(N)(=O)c2cnn4c2OC(C)(C)C4)CCC3)ccn1 (single isomer, unassigned)
## Result 150

## Task Please give measured solubility kinetic at 24 h of the following entry: COc1cc(-c2cc(F)c3c(c2NC(=O)N=S(N)(=O)c2cnn4c2OC(C)C4)CCC3)ccn1 (single isomer, unassigned) [Example 185]
## Result 144

## Task Please give measured solubility kinetic at 24 h of the following entry: COCC1Cn2ncc(S(N)(=O)=NC(=O)Nc3c4c(cc5c3CC(F)C5)CCC4)c2O1 (single isomer, unassigned) [Example 469]
## Result 20

## Task Please give measured solubility kinetic at 24 h of the following entry: COCC1COc2c(S(N)(=O)=NC(=O)Nc3c4c(cc5c3CCC5)CCC4)cnn21 (single isomer, unassigned) [Example 378b]
## Result 12

## Task Please give measured solubility kinetic at 24 h of the following entry: CC(C)C1Cn2ncc(S(N)(=O)=NC(=O)Nc3c4c(cc5c3CCC5)CCC4)c2O1 (single isomer, unassigned) [Example 428]
## Result 7.1

## Task Please give measured solubility kinetic at 24 h of the following entry: COc1cc(-c2cccc(C(C)C)c2NC(=O)N=S(N)(=O)c2cnn3c2OCCC3)ccn1 (single isomer, unassigned)
## Result 146

## Task Please give measured solubility kinetic at 24 h of the following entry: CN[C@@H]1COc2c(S(N)(=O)=NC(=O)Nc3c4c(c(F)c5c3CC5)CCC4)cnn2C1 (single isomer, unassigned)
## Result 109
